pIC50: recorded values
System: L1210, CEM and HeLa cell lines
Assay remarks: Cytostatic activity, average or summary over L1210, CEM and HeLa
Type: cell-based
Test parameters: average of L1210, CEM and HeLa; read-out: Toxicity (IC50) Average
Scale explanation: pIC50 corresponds to minus log10 of a concentration expressed in moles per litre.

See these solved cases before continuing.
CNC(CC(C)C)C(=O)NC1C(=O)NC(CC(N)=O)C(=O)NC2C(=O)NC3C(=O)NC(C(=O)NC(C(=O)NCC(=O)Nc4ccc(C#CC5CCCC5)cc4)c4cc(O)cc(O)c4-c4cc3ccc4O)C(O)c3ccc(c(Cl)c3)Oc3cc2cc(c3OC2OC(CO)C(O)C(O)C2OC2CC(C)(N)C(O)C(C)O2)Oc2ccc(cc2Cl)C1O (stereo not drawn)
4.05
CN[C@H](CC(C)C)C(=O)N[C@H]1C(=O)N[C@@H](CC(N)=O)C(=O)N[C@H]2C(=O)N[C@H]3C(=O)N[C@H](C(=O)N[C@H](C(=O)NCCNC(=O)/C=C/c4ccc(F)cc4)c4cc(O)cc(O)c4-c4cc3ccc4O)[C@H](O)c3ccc(c(Cl)c3)Oc3cc2cc(c3O[C@@H]2O[C@H](CO)[C@@H](O)[C@H](O)[C@H]2O[C@H]2C[C@](C)(N)[C@H](O)[C@H](C)O2)Oc2ccc(cc2Cl)[C@H]1O
3.72
CNC(CC(C)C)C(=O)NC1C(=O)NC(CC(N)=O)C(=O)NC2C(=O)NC3C(=O)NC(C(=O)NC(C(=O)NCC(=O)Nc4ccc(-c5cn(-c6ccc(OC)cc6)nn5)cc4)c4cc(O)cc(O)c4-c4cc3ccc4O)C(O)c3ccc(c(Cl)c3)Oc3cc2cc(c3OC2OC(CO)C(O)C(O)C2OC2CC(C)(N)C(O)C(C)O2)Oc2ccc(cc2Cl)C1O (stereo not drawn)
4.14

Now turn to the next compound.
Problem: Entry `CN[C@H](CC(C)C)C(=O)N[C@H]1C(=O)N[C@@H](CC(N)=O)C(=O)N[C@H]2C(=O)N[C@H]3C(=O)N[C@H](C(=O)N[C@H](C(=O)NCC(=O)Nc4ccc(C#Cc5ccccc5)cc4)c4cc(O)cc(O)c4-c4cc3ccc4O)[C@H](O)c3ccc(c(Cl)c3)Oc3cc2cc(c3O[C@@H]2O[C@H](CO)[C@@H](O)[C@H](O)[C@H]2O[C@H]2C[C@](C)(N)[C@H](O)[C@H](C)O2)Oc2ccc(cc2Cl)[C@H]1O` has what pIC50?
Solution: 4.92

---

System: E. faecalis VRE 6
Assay remarks: MIC, broth microdilution, vancomycin-resistant E. faecalis VRE 6 (VanA)
Assay type: cell-based, Enterococcus faecalis
Test parameters: Enterococcus faecalis VRE 6 (vancomycin-resistant); read-out: MIC
MIC: recorded values
Respond with the bare value in µM.

CN[C@H](CC(C)C)C(=O)N[C@H]1C(=O)N[C@@H](CC(N)=O)C(=O)N[C@H]2C(=O)N[C@H]3C(=O)N[C@H](C(=O)N[C@H](C(=O)NCC(=O)Nc4ccc(C)cc4C)c4cc(O)cc(O)c4-c4cc3ccc4O)[C@H](O)c3ccc(c(Cl)c3)Oc3cc2cc(c3O[C@@H]2O[C@H](CO)[C@@H](O)[C@H](O)[C@H]2O[C@H]2C[C@](C)(N)[C@H](O)[C@H](C)O2)Oc2ccc(cc2Cl)[C@H]1O
6.25

Problem: Entry CNC(CC(C)C)C(=O)NC1C(=O)NC(CC(N)=O)C(=O)NC2C(=O)NC3C(=O)NC(C(=O)NC(C(=O)NCC(=O)Nc4ccc(-c5cn(-c6ccc(OC)cc6)nn5)cc4)c4cc(O)cc(O)c4-c4cc3ccc4O)C(O)c3ccc(c(Cl)c3)Oc3cc2cc(c3OC2OC(CO)C(O)C(O)C2OC2CC(C)(N)C(O)C(C)O2)Oc2ccc(cc2Cl)C1O (centres unmarked) has what MIC?
Solution: 3.13
